% (positive patients SI > 5) for assorted sequences
# Tested on: Amb a 1-specific T cell lines (TCL)
# protocol_notes: T cell epitope mapping of Amb a 1.3: proliferation (3H-thymidine uptake) of TCL stimulated with synthetic peptides
# Assay type: cell-based, human
# cond: TCL from 48 ragweed pollen-allergic patients; peptide 5 μg/ml; stimulation index > 5
// return numeric value only (unit: %, not printed)

INSERT INTO measurements (sequence_string, measured_property, reported) VALUES
  ('WRSDKDLLENGA (Amb a 1 fragment) [Peptide 106]', '% (positive patients SI > 5)', 2.1),
  ('VDQRMPRCRFGF (Amb a 1 fragment) [Peptide 83]', '% (positive patients SI > 5)', 16.7),
  ('KADWENNRQALA (Amb a 1 fragment) [Peptide 12]', '% (positive patients SI > 5)', 2.1),
  ('EILPSVNETRSL (Amb a 1 fragment) [Peptide 3]', '% (positive patients SI > 5)', 0.0),
  ('PTILCQGNRFLA (Amb a 1 fragment) [Peptide 94]', '% (positive patients SI > 5)', 18.8);

Sample GADDTHVQDKGM (Amb a 1 fragment) [Peptide 75] ; % (positive patients SI > 5) observed: 2.1

Sample SDPVLTPVQSAG (Amb a 1 fragment) [Peptide 112] ; % (positive patients SI > 5) observed: 6.3

Sample FGFFQVVNNNYD (Amb a 1 fragment) [Peptide 86] ; % (positive patients SI > 5) observed: 20.8

Sample LCQGNRFLAPDD (Amb a 1 fragment) [Peptide 95] ; % (positive patients SI > 5) observed: 0.0

Sample IDHCSLSKSFDG (Amb a 1 fragment) [Peptide 62] ; % (positive patients SI > 5) observed: 4.2

Sample GAAESMAWNWRS (Amb a 1 fragment) [Peptide 103] ; % (positive patients SI > 5) observed: 2.1

* * *

% (positive patients SI > 5) for assorted sequences
# Tested on: Amb a 1-specific T cell lines (TCL)
# protocol_notes: T cell epitope mapping of Amb a 1.3: proliferation (3H-thymidine uptake) of TCL stimulated with synthetic peptides
# Type: cell-based, human
# cond: TCL from 48 ragweed pollen-allergic patients; peptide 5 μg/ml; stimulation index > 5
Please provide the amount together with its unit, number first.

Would you please look over these solved cases?
INSERT INTO assay_data (sequence_string, reported) VALUES
  ('NVAGSSQIWIDH (Amb a 1 fragment) [Peptide 59]', '16.7%'),
  ('GSSQIWIDHCSL (Amb a 1 fragment) [Peptide 60]', '58.3%'),
  ('PLWIIFKNDMVI (Amb a 1 fragment) [Peptide 31]', '20.8%'),
  ('IGGSSAPTILCQ (Amb a 1 fragment) [Peptide 92]', '4.2%'),
  ('TYAIGGSSAPTI (Amb a 1 fragment) [Peptide 91]', '22.9%'),
  ('AIKLTSSAGVLS (Amb a 1 fragment) [Peptide 119]', '20.8%'),
  ('IIHNINIHDVKV (Amb a 1 fragment) [Peptide 47]', '20.8%'),
  ('LPGGMIKSNDGP (Amb a 1 fragment) [Peptide 51]', '6.3%'),
  ('LDDDVANPKEGT (Amb a 1 fragment) [Peptide 24]', '2.1%'),
  ('SDGDTINVAGSS (Amb a 1 fragment) [Peptide 57]', '0.0%');

Sample GMIKSNDGPPIL (Amb a 1 fragment) [Peptide 52] ; % (positive patients SI > 5) observed: 56.3%
